molecular target: 5-hydroxytryptamine receptor 1B (Homo sapiens, UniProt P28222); assay: Antagonist activity at human 5-HT1B receptor expressed in CHO cells assessed as inhibition of GTPgammaS binding by scintillation proximity assay
Sequence (P28222 whole entry): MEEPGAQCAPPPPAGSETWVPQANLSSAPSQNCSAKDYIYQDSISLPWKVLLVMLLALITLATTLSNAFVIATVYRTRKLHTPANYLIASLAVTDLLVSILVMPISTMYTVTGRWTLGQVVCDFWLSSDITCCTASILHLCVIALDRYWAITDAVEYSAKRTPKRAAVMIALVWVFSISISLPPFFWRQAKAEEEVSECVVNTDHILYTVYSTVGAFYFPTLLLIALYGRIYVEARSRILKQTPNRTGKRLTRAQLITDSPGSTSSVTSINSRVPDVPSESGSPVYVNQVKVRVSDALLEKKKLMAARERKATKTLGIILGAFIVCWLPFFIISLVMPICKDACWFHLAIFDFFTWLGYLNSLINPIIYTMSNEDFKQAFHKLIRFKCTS
pKi: −log10 of the molar value.
Assay Endpoint: pKi

Cc1ccc2c(C3CCN(CCc4c(C)ccc5c4ccc(=O)n5C)CC3)cccc2n1    < 6.00

(Q) State the recorded pKi for this entry: `Cc1ccc2c(N3CCN(CCc4c(C)ccc5c4ccc(=O)n5C)[C@@H](C)C3)cccc2n1`
(A) < 6.00

(Q) Entry `Cc1ccc2c(N3CCN(CCc4c(C)ccc5c4ccc(=O)n5C)CC3)cc(F)cc2n1` please
(A) < 6.00
